From: patent US20240124585A1

pKd values by entry
- target: T1, human CD3 epsilon (Acro Cat #CDE-H5223) (human, UniProt P07766 23-126)
- T1 construct: Bought recombinant protein; also called rhCD3E
- T1 sequence (P07766 23-126 limits assumed): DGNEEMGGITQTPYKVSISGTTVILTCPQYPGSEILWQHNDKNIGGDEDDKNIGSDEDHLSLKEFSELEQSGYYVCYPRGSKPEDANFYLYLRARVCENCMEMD
- protocol-text: SPR (Biacore), antibody captured, human CD3 epsilon analyte
- Experimental: Anti-Fab or anti-Fc polyclonal antibodies were immobilized onto a CM5 chip (GE Life Sciences) using amine coupling chemistry (from Amine Coupling Kit, GE Life Sciences). […] The data was fit with the Biacore T200 Evaluation software, using a 1-1 Langmuir binding model. KD (affinity, nM) was determined as a ratio of the kinetic rate constants calculated from the fits of the association and dissociation phases.
pKd: −log10 of the molar value.
metric-name: pKd

{"binder": "2037-B10_Hc-S107D (antibody, human IgG1, lambda, V domains shown, human IgG1, lambda; also called SRP 2037 S107D; 2037-B10_VH-S107D) VH: EVQLVESGGGLVKPGGSLRLSCAASGFTFNKYAMNWVRQAPGKGLEWVARIRTKYNNYATYYADSVKDRFTISRDDSKNTAYLQMNSLKTEDTAVYYCVRHGNFGNDYISYWAYWGQGTPVTVSS VL: QTVVTQEPSLTVSPGGTVTLTCGSSTGAVTSGYYPNWLQQKPGQAPRGLIGGTKFLAPGTPARFSGSLLGGKAALTLSGVQPEDEAEYYCALWYSNRWVFGGGTQLTVTG", "metric-name": "pKd", "reported-measurement": 8.30}
{"binder": "SRP 2037-B10 Y61D/R97D (antibody, human IgG1, lambda, V domains shown, human IgG1, lambda) VH: EVQLVESGGGLVKPGGSLRLSCAASGFTFNKYAMNWVRQAPGKGLEWVARIRTKYNNYATDYADSVKDRFTISRDDSKNTAYLQMNSLKTEDTAVYYCVRHGNFGNSYISYWAYWGQGTPVTVSS VL: QTVVTQEPSLTVSPGGTVTLTCGSSTGAVTSGYYPNWLQQKPGQAPRGLIGGTKFLAPGTPARFSGSLLGGKAALTLSGVQPEDEAEYYCALWYSNDWVFGGGTQLTVTG", "metric-name": "pKd", "reported-measurement": 8.41}
{"binder": "SRP 2037-B10 F29D/R97D (antibody, human IgG1, lambda, V domains shown, human IgG1, lambda) VH: EVQLVESGGGLVKPGGSLRLSCAASGFTDNKYAMNWVRQAPGKGLEWVARIRTKYNNYATYYADSVKDRFTISRDDSKNTAYLQMNSLKTEDTAVYYCVRHGNFGNSYISYWAYWGQGTPVTVSS VL: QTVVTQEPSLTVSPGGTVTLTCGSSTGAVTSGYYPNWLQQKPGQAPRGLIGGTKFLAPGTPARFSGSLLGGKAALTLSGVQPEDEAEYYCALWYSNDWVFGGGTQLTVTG", "metric-name": "pKd", "reported-measurement": 6.73}
